B1: CPEB3 Ribozyme (parent)
chain: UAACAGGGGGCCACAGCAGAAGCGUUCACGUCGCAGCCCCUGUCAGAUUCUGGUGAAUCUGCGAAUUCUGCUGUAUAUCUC

variants of: B1; test: self-cleavage, relative activity (ratio to wild type); higher = more cleavage; in vitro, sequencing
observable: self-cleavage
The answer should be written as a number, with no unit following it.

Ask: Give self-cleavage for A2C A13G
Result: 0.49

Ask: Give self-cleavage for C44G U74C
Result: 1.02

Ask: Give self-cleavage for U66G C68G
Result: 0.29

Ask: Give self-cleavage for C17G U54A
Result: 0.54
